Data origin, for the record: patent US7297796B2

Assignment: determine reported pKi for the given molecules.
tgt: CB2 receptor (Homo sapiens)
Sequence (P34972 whole entry): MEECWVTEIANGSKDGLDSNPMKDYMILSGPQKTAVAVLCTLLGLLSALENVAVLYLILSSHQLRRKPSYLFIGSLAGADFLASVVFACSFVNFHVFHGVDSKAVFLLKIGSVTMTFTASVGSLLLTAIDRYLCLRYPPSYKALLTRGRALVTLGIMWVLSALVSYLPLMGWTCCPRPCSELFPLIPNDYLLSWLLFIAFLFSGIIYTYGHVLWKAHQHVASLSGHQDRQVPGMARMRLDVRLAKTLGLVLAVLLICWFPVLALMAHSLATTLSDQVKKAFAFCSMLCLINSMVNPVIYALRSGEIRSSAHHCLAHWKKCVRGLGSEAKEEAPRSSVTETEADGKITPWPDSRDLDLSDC
Numbers only, as −log10 of the molar value.

Report pKi for each item below.
1. CC1(C)[C@@H]2CC[C@@](C)(C2)[C@@H]1NC(=O)c1ccc(Br)c(S(=O)(=O)N2CCCCC2)c1
2. CN(Cc1ccccc1)S(=O)(=O)c1cc(C(=O)NC2C(C)(C)[C@@H]3CC[C@]2(C)C3)ccc1Br (stereo in doubt)
3. Cc1ccc(C(=O)N[C@H]2C(C)(C)[C@@H]3CC[C@@]2(C)C3)cc1S(=O)(=O)N1CCOCC1

A:
1: 7.88; 2: 7.99; 3: 8.43
